Attribution: ChEMBL document CHEMBL1155775

run description: Metabolic stability in rhesus monkey whole blood at 1000 dpm/pmol after 8 hrs at 37 degC
Format: ADME, tissue-based, Macaca mulatta
condition parameters: read-out: Stability
measured parameter: remaining at 8 h (%)
The response must be a number in % with no trailing unit.

Exercise: Could you share which remaining at 8 h value was measured for C[C@@]1(F)[C@H](O)[C@@H](CO)O[C@H]1n1ccc(N)nc1=O ?
Solution: 100

###

run description: Metabolic stability in rhesus monkey whole blood at 1000 dpm/pmol after 1 hr at 37 degC
Format: ADME, tissue-based, Macaca mulatta
condition parameters: read-out: Stability
measured parameter: remaining at 1 h
Could you kindly put the unit after your number?

Exercise: Could you share which remaining at 1 h value was measured for C[C@@]1(F)[C@H](O)[C@@H](CO)O[C@H]1n1ccc(N)nc1=O ?
Solution: 100%

###

run description: Mean residence time in rhesus monkey at 33.3 mg/kg, po administered as single dose
Assay type: ADME, organism-based, Macaca mulatta
Parameters: dose 33.3 mg/kg, route oral
condition parameters: in vivo
measured parameter: MRT (h)
The response must be a number in h with no trailing unit.

Exercise: Could you share which MRT value was measured for C[C@@]1(F)[C@H](O)[C@@H](CO)O[C@H]1n1ccc(N)nc1=O ?
Solution: 7.11

###

run description: Drug level in rhesus monkey cerebrospinal fluid at 33.3 mg/kg, iv administered as single dose after 1 hr
Type: ADME, organism-based, Macaca mulatta
Set-up: dose 33.3 mg/kg, route intravenous
condition parameters: read-out: Drug uptake
measured parameter: concentration at 1 h (µM)
The response must be a number in µM with no trailing unit.

Exercise: Could you share which concentration at 1 h value was measured for C[C@@]1(F)[C@H](O)[C@@H](CO)O[C@H]1n1ccc(N)nc1=O ?
Solution: 3.67

###

run description: Cmax in rhesus monkey at 33.3 mg/kg, iv administered as single dose
Type: ADME, organism-based, Macaca mulatta
Set-up: dose 33.3 mg/kg, route intravenous
condition parameters: in vivo
measured parameter: Cmax (µM)
The response must be a number in µM with no trailing unit.

Exercise: Could you share which Cmax value was measured for C[C@@]1(F)[C@H](O)[C@@H](CO)O[C@H]1n1ccc(N)nc1=O ?
Solution: 154

###

run description: Metabolic stability in rhesus monkey whole blood at 1000 dpm/pmol after 24 hrs at 37 degC
Format: ADME, tissue-based, Macaca mulatta
condition parameters: read-out: Stability
measured parameter: remaining at 24 h (%)
The response must be a number in % with no trailing unit.

Exercise: Could you share which remaining at 24 h value was measured for C[C@@]1(F)[C@H](O)[C@@H](CO)O[C@H]1n1ccc(N)nc1=O ?
Solution: 93.1

###

run description: Terminal half life in rhesus monkey at 33.3 mg/kg, iv administered as single dose
Format: ADME, organism-based, Macaca mulatta
Design: dose 33.3 mg/kg, route intravenous
condition parameters: in vivo, read-out: beta t1/2 (converted)
measured parameter: half-life (h)
The response must be a number in h with no trailing unit.

Exercise: Could you share which half-life value was measured for C[C@@]1(F)[C@H](O)[C@@H](CO)O[C@H]1n1ccc(N)nc1=O ?
Solution: 4.54

###

run description: Metabolic stability in rhesus monkey whole blood at 1000 dpm/pmol after 4 hrs at 37 degC
Assay type: ADME, tissue-based, Macaca mulatta
condition parameters: read-out: Stability
measured parameter: remaining at 4 h (%)
The response must be a number in % with no trailing unit.

Exercise: Could you share which remaining at 4 h value was measured for C[C@@]1(F)[C@H](O)[C@@H](CO)O[C@H]1n1ccc(N)nc1=O ?
Solution: 100
